src = patent US20240360228A1

- Measured On: T1, human CCR8 (human, UniProt P51685 1-355)
- T1 construct: Native CCR8 on human PBMC (CCR8+ CD3+ or CCR8+ CD4+ lymphocytes); also called chemokine (C-C motif) receptor 8
- Procedure Summary: flow blocking, PBMC CCR8+CD4+; competitor PE-AB14
Metric: % Blocking (%)
All answers are understood in %, so give the number only.

>>> numeric_result("AB4 (antibody, V domains shown, Hybridoma monoclonal; also called antibody 4; clone 4) VH: QVQLKESGPGLVKPSETLSLTCTVSGFSLTGYHVSWVRQPPGKGLEWMGVIWGDGRTTYNSALKSRLSISRDTSKSQVFLKMSSLKTEDTATYYCARGGDSGFAYWGQGTLVTVSS VL: DIQMTQSPASLSASLEEIVTITCQASQDIGNWLSWYQQKPGKSPQLLIYGATSLADGVPSRFSGSRSGTQFSLKISRLQVEDIGIYYCLQAYIVPLTFGSGTKLESK")
-15.4
>>> numeric_result("AB8 (antibody, V domains shown, Hybridoma monoclonal; also called antibody 8; clone 8) VH: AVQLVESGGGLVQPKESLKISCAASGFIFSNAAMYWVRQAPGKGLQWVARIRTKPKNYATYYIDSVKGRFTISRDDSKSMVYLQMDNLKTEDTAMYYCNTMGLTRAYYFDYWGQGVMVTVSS VL: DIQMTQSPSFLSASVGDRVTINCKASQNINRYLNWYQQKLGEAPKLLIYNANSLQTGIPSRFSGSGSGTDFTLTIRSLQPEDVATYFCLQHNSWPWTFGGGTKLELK")
96.9

The reported value for AB14 (antibody, V domains shown, Hybridoma monoclonal; Same VH/VL entries as AB15; also called antibody 14; clone 14) VH: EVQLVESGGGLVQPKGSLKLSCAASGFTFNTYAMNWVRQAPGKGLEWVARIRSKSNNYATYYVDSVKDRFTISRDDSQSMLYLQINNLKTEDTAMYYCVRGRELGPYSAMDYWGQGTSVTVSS VL: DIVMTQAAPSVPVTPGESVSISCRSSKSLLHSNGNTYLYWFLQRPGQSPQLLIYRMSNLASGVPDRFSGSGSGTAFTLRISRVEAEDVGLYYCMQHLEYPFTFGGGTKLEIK in terms of % Blocking is 98.5

The reported value for AB5 (antibody, V domains shown, Hybridoma monoclonal; Same VH/VL entries as AB6; also called antibody 5; clone 5) VH: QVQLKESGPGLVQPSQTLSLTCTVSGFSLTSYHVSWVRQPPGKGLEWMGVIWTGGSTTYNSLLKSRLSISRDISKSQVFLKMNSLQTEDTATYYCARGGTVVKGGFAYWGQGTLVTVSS VL: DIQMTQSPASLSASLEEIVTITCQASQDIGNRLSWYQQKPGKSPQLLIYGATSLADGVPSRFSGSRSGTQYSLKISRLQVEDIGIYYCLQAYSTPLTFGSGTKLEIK in terms of % Blocking is -25.4

The reported value for AB12 (antibody, V domains shown, Hybridoma monoclonal; also called antibody 12; clone 12) VH: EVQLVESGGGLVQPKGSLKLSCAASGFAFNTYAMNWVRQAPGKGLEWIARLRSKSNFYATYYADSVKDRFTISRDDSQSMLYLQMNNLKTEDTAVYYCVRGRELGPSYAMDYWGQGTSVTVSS VL: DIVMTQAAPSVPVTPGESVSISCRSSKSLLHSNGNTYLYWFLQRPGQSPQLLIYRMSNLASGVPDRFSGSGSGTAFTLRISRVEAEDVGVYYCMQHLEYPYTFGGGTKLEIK in terms of % Blocking is 100

The reported value for AB2 (antibody, V domains shown, Hybridoma monoclonal; Same VH/VL entries as AB1; also called antibody 2; clone 2) VH: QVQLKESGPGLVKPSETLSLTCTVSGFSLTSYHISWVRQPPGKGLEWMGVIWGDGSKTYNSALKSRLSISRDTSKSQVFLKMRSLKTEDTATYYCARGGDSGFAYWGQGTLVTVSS VL: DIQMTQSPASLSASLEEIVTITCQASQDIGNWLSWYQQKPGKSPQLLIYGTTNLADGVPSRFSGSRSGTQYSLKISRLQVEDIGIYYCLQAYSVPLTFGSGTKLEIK in terms of % Blocking is -15.4

The reported value for AB13 (antibody, V domains shown, Hybridoma monoclonal; also called antibody 13; clone 13) VH: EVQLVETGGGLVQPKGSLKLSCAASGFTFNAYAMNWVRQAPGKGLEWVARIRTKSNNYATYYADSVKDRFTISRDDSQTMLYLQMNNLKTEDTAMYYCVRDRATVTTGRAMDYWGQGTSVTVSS VL: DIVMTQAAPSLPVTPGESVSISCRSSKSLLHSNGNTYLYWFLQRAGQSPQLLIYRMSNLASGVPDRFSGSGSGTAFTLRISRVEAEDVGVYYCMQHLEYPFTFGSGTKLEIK in terms of % Blocking is 99.2

The reported value for AB15 (antibody, V domains shown, Hybridoma monoclonal; Same VH/VL entries as AB14; also called antibody 15; clone 15) VH: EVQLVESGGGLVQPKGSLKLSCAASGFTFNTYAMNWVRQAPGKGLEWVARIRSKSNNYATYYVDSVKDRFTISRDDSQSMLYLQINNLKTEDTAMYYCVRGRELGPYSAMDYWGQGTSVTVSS VL: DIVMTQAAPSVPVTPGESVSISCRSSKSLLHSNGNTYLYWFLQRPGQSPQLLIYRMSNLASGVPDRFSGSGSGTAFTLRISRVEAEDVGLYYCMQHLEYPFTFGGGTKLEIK in terms of % Blocking is 99.2
